system: mAChR M4 (Homo sapiens)
Construct: expressed in transfected cells; host or cells: CHO-K1 cells stably transfected with M4 cDNA and chimeric G-protein Gqi5
method: mAChR M4 cell-based functional assay (calcium mobilization, potentiation of EC20 acetylcholine response)
condition: % ACh maximum at 30 μM
Measured Emax at 30 µM of individual entries
endpoint: Emax at 30 µM

INSERT INTO measurements (smilesrecord, measvalue) VALUES
  ('Cc1nnc2sc(C(=O)NC3CN(C(=O)c4ccccc4F)C3)c(N)c2c1C', '70%'),
  ('Cc1nnc2sc(C(=O)NCc3ccnc(F)c3)c(N)c2c1C', '59%'),
  ('Cc1nnc2sc(C(=O)N3C[C@@H]4C[C@@H]3CN4S(C)(=O)=O)c(N)c2c1C', '51%'),
  ('Cc1nnc2sc(C(=O)NCc3ccc(-c4cccc5cccnc45)cc3)c(N)c2c1C', '74%'),
  ('Cc1nnc2sc(C(=O)NCCNC(=O)c3ccccc3)c(N)c2c1C', '59%');

* * *

system: mAChR M4 (Homo sapiens, UniProt P08173)
Construct: expressed in transfected cells; host or cells: CHO-K1 cells stably transfected with M4 cDNA and chimeric G-protein Gqi5
Sequence (P08173 whole entry): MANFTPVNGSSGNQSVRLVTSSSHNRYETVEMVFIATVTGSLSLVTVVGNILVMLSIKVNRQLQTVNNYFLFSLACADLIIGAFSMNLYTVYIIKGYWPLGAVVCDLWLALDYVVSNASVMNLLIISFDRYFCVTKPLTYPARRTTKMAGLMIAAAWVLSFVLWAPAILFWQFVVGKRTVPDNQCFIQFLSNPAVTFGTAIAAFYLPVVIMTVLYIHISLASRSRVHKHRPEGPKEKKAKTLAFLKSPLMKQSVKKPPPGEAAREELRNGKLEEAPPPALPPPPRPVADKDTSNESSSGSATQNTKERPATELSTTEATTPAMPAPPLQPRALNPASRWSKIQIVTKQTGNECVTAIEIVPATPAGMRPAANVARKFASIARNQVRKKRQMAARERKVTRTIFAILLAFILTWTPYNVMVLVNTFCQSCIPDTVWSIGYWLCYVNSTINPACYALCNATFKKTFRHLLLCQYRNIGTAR
method: mAChR M4 cell-based functional assay (calcium mobilization, potentiation of EC20 acetylcholine response)
condition: % ACh maximum at 30 μM
endpoint: Emax at 30 µM (%)

INSERT INTO assay_data (molecule, endpoint, scaleunit, measvalue) VALUES
  ('COc1ccc(CNC(=O)c2sc3nnccc3c2N)cc1', 'Emax at 30 µM', '%', 61),
  ('Cc1nnc2sc(C(=O)NCc3ccc([S+](C)[O-])cc3)c(N)c2c1C (stereo not drawn)', 'Emax at 30 µM', '%', 82),
  ('Cc1nnc2sc(C(=O)NC3CN(C(=O)c4ccc(F)cc4)C3)c(N)c2c1C', 'Emax at 30 µM', '%', 91),
  ('Cc1nnc2sc(C(=O)N3CC4CN(c5cccc(F)n5)CC4C3)c(N)c2c1C (stereo not drawn)', 'Emax at 30 µM', '%', 66),
  ('Cc1nnc2sc(C(=O)NC3CN(c4ncc(Br)cn4)C3)c(N)c2c1C', 'Emax at 30 µM', '%', 67),
  ('Cc1nnc2sc(C(=O)N3CCC(NS(C)(=O)=O)C3)c(N)c2c1C (stereo not drawn)', 'Emax at 30 µM', '%', 65),
  ('Cc1nnc2sc(C(=O)NCc3ccc(-c4cnn(C)c4)cc3)c(N)c2c1C', 'Emax at 30 µM', '%', 64),
  ('Cc1nnc2sc(C(=O)NC3CCN(C(=O)CCc4ccccc4)C3)c(N)c2c1C (stereo not drawn)', 'Emax at 30 µM', '%', 72),
  ('Cc1nnc2sc(C(=O)NCc3ccc(S(=O)(=O)N(C)C)cc3)c(N)c2c1C', 'Emax at 30 µM', '%', 65),
  ('Cc1nnc2sc(C(=O)NCc3ccc(O)cc3)c(N)c2c1C', 'Emax at 30 µM', '%', 66),
  ('COc1ccccc1C(=O)N1CC(NC(=O)c2sc3nnc(C)c(C)c3c2N)C1', 'Emax at 30 µM', '%', 64),
  ('Cc1nnc2sc(C(=O)N3CC(F)(c4ccc(S(C)(=O)=O)cc4)C3)c(N)c2c1C', 'Emax at 30 µM', '%', 51),
  ('Cc1cncc(-c2ccc(CNC(=O)c3sc4nnc(C)c(C)c4c3N)cc2)c1', 'Emax at 30 µM', '%', 71),
  ('Cc1nnc2sc(C(=O)N3CCC(c4ccccc4)C3C)c(N)c2c1C (stereo not drawn)', 'Emax at 30 µM', '%', 54),
  ('Cc1nnc2sc(C(=O)N3CC(NC(=O)c4ccncc4)C3)c(N)c2c1C', 'Emax at 30 µM', '%', 48),
  ('Cc1nnc2sc(C(=O)NCc3ccccn3)c(N)c2c1C', 'Emax at 30 µM', '%', 58),
  ('Cc1nnc2sc(C(=O)NC3CCN(C(=O)c4cccs4)C3)c(N)c2c1C (stereo not drawn)', 'Emax at 30 µM', '%', 74),
  ('Cc1nnc2sc(C(=O)N3CC(NC(=O)Oc4ccccc4)(c4ccccc4)C3)c(N)c2c1C', 'Emax at 30 µM', '%', 48);

* * *

system: mAChR M4 (Homo sapiens, UniProt P08173)
Construct: expressed in transfected cells; host or cells: CHO-K1 cells stably transfected with M4 cDNA and chimeric G-protein Gqi5
method: mAChR M4 cell-based functional assay (calcium mobilization, potentiation of EC20 acetylcholine response)
condition: mAChR M4 cell-based functional assay; >10,000 estimated for low potency compounds without plateau; read-out: EC50
pEC50: −log10 of the molar value.
endpoint: pEC50

INSERT INTO assay_data (molecule, system, endpoint, readoutqualifier, measvalue) VALUES
  ('Cc1nnc2sc(C(=O)N3CC4CN(C(=O)Oc5ccccc5)CC4C3)c(N)c2c1C (centres unmarked)', 'mAChR M4 (Homo sapiens, UniProt P08173)', 'pEC50', '=', 6.01),
  ('Cc1nnc2sc(C(=O)NC3CN(C(=O)Oc4cccc(Cl)c4)C3)c(N)c2c1C', 'mAChR M4 (Homo sapiens, UniProt P08173)', 'pEC50', '=', 7.80),
  ('COc1c(F)cc(CNC(=O)c2sc3nnc(C)c(C)c3c2N)cc1F', 'mAChR M4 (Homo sapiens, UniProt P08173)', 'pEC50', '=', 7.74),
  ('COc1ccc(CNC(=O)c2sc3nnc(-c4ccccc4)c(-c4ccccc4)c3c2N)cc1', 'mAChR M4 (Homo sapiens, UniProt P08173)', 'pEC50', '=', 5.57),
  ('COc1ccc(C(=O)N2CC(NC(=O)c3sc4nnc(C)c(C)c4c3N)C2)c(OC)c1', 'mAChR M4 (Homo sapiens, UniProt P08173)', 'pEC50', '=', 6.70),
  ('Cc1nnc2sc(C(=O)NCc3ccc(-c4cncc5ccccc45)cc3)c(N)c2c1C', 'mAChR M4 (Homo sapiens, UniProt P08173)', 'pEC50', '=', 5.96),
  ('Cc1nnc2sc(C(=O)NC3CN(C(=O)Nc4ccc(F)cc4)C3)c(N)c2c1C', 'mAChR M4 (Homo sapiens, UniProt P08173)', 'pEC50', '=', 7.49),
  ('Cc1nnc2sc(C(=O)NC3CCN(C(=O)C4CC4c4ccccc4)C3)c(N)c2c1C (centres unmarked)', 'mAChR M4 (Homo sapiens, UniProt P08173)', 'pEC50', '=', 6.41),
  ('Cc1nnc2sc(C(=O)NC3CCN(c4cccnc4)C3)c(N)c2c1C (centres unmarked)', 'mAChR M4 (Homo sapiens, UniProt P08173)', 'pEC50', '=', 6.21),
  ('Cc1nnc2sc(C(=O)NC3CN(C(=O)Cc4cccs4)C3)c(N)c2c1C', 'mAChR M4 (Homo sapiens, UniProt P08173)', 'pEC50', '=', 7.15),
  ('CS(=O)(=O)c1ccc(CNC(=O)c2sc3nnc(Cl)cc3c2N)cc1', 'mAChR M4 (Homo sapiens, UniProt P08173)', 'pEC50', '=', 6.31),
  ('Cc1nnc2sc(C(=O)NCc3ccc4[nH]ccc4c3)c(N)c2c1C', 'mAChR M4 (Homo sapiens, UniProt P08173)', 'pEC50', '=', 7.19),
  ('Cc1nnc2sc(C(=O)NCc3ccc(-c4ccccc4)cc3)c(N)c2c1C', 'mAChR M4 (Homo sapiens, UniProt P08173)', 'pEC50', '=', 6.64),
  ('COCCOCCNC(=O)c1sc2nnc(C)c(C)c2c1N', 'mAChR M4 (Homo sapiens, UniProt P08173)', 'pEC50', '<', 5.00),
  ('Cc1nnc2sc(C(=O)NCc3ccc(-c4cccnc4)cc3)c(N)c2c1C', 'mAChR M4 (Homo sapiens, UniProt P08173)', 'pEC50', '=', 7.96),
  ('Cc1nnc2sc(C(=O)NCc3ccc(-c4ccsc4)cc3)c(N)c2c1C', 'mAChR M4 (Homo sapiens, UniProt P08173)', 'pEC50', '=', 6.24),
  ('Cc1nnc2sc(C(=O)N3CCC(NC(=O)c4ccc(F)c(F)c4)C3)c(N)c2c1C (centres unmarked)', 'mAChR M4 (Homo sapiens, UniProt P08173)', 'pEC50', '=', 5.96),
  ('Cc1nnc2sc(C(=O)NCc3ccc(-c4ccc5[nH]ncc5c4C)cc3)c(N)c2c1C', 'mAChR M4 (Homo sapiens, UniProt P08173)', 'pEC50', '=', 7.05),
  ('Cc1nnc2sc(C(=O)NCc3ccc(CN4CCCC4)cc3)c(N)c2c1C', 'mAChR M4 (Homo sapiens, UniProt P08173)', 'pEC50', '=', 7.42),
  ('Cc1nnc2sc(C(=O)NC3CCN(c4ccc(F)cc4)C3)c(N)c2c1C (centres unmarked)', 'mAChR M4 (Homo sapiens, UniProt P08173)', 'pEC50', '=', 6.77),
  ('COCCOc1ccc(CNC(=O)c2sc3nnc(C)c(C)c3c2N)cc1', 'mAChR M4 (Homo sapiens, UniProt P08173)', 'pEC50', '=', 7.00),
  ('Cc1nnc2sc(C(=O)NC3CCN(c4ccc(OC(F)(F)F)cc4)C3)c(N)c2c1C (centres unmarked)', 'mAChR M4 (Homo sapiens, UniProt P08173)', 'pEC50', '=', 6.64),
  ('Cc1nnc2sc(C(=O)NC3CN(c4cccnc4)C3)c(N)c2c1C', 'mAChR M4 (Homo sapiens, UniProt P08173)', 'pEC50', '=', 7.92),
  ('Cc1nnc2sc(C(=O)N3CC(F)(c4ccc([S+](C)[O-])cc4)C3)c(N)c2c1C (centres unmarked)', 'mAChR M4 (Homo sapiens, UniProt P08173)', 'pEC50', '=', 5.96),
  ('COc1ccc(C2(NC(=O)c3sc4nnc(C)c(C)c4c3N)CC2)cc1', 'mAChR M4 (Homo sapiens, UniProt P08173)', 'pEC50', '=', 5.19),
  ('Cc1nnc2sc(C(=O)NCCN(C)C(=O)C3CC3)c(N)c2c1C', 'mAChR M4 (Homo sapiens, UniProt P08173)', 'pEC50', '<', 5.00),
  ('COc1cccc(SC2CN(C(=O)c3sc4nnc(C)c(C)c4c3N)C2)c1', 'mAChR M4 (Homo sapiens, UniProt P08173)', 'pEC50', '=', 6.80),
  ('Cc1nnc2sc(C(=O)NC3CN(S(=O)(=O)c4cccc(Cl)c4F)C3)c(N)c2c1C', 'mAChR M4 (Homo sapiens, UniProt P08173)', 'pEC50', '=', 7.27),
  ('Cc1nnc2sc(C(=O)NCc3ccc(OC(F)F)cn3)c(N)c2c1C', 'mAChR M4 (Homo sapiens, UniProt P08173)', 'pEC50', '<', 5.00),
  ('Cc1nnc2sc(C(=O)NCc3ccnc(C#N)c3)c(N)c2c1C', 'mAChR M4 (Homo sapiens, UniProt P08173)', 'pEC50', '=', 5.92),
  ('Cc1nnc2sc(C(=O)NCc3ccc(-c4cccnc4F)cc3)c(N)c2c1C', 'mAChR M4 (Homo sapiens, UniProt P08173)', 'pEC50', '=', 7.72),
  ('Cc1nnc2sc(C(=O)N3CCC(NC(=O)N4CCOCC4)C3)c(N)c2c1C (centres unmarked)', 'mAChR M4 (Homo sapiens, UniProt P08173)', 'pEC50', '<', 5.00),
  ('Nc1c(C(=O)NC2CC2)sc2nnccc12', 'mAChR M4 (Homo sapiens, UniProt P08173)', 'pEC50', '<', 5.00),
  ('Cc1nnc2sc(C(=O)NC3CCN(C(=O)C4CCCCC4)C3)c(N)c2c1C (centres unmarked)', 'mAChR M4 (Homo sapiens, UniProt P08173)', 'pEC50', '=', 6.37),
  ('Cc1ccc(S(=O)(=O)N2CC(NC(=O)c3sc4nnc(C)c(C)c4c3N)C2)cc1F', 'mAChR M4 (Homo sapiens, UniProt P08173)', 'pEC50', '=', 6.89);
